Molecular target: T1, recombinant human IL12Rβ1/Fc fusion protein (human, UniProt P42701 24-545)
T1 construct: Bought from R&D Systems; Partly used biotinylated; also called rh IL12Rβ1
Test: BioVeris competition; Fab titrated with IL12Rβ1/Fc, competitor rhIL-12 on beads
Observable: EC50 (nM)
Give the value, in units of nM, as a plain number.

Recorded results for 2 binders are shown here.
{"columns": ["Binder", "Observable", "Unit Abbrev", "Assay Result"],
 "data": [
  ["MOR05286 Fab (Fab, V domains shown, also called MOR5286) VH: QVQLKESGPALVKPTQTLTLTCTFSGFSLSTSGMGVSWIRQPPGKALEWLALIDWTDDKYYSTSLKTRLTISKDTSKNQVVLTMTNMDPVDTATYYCARTVGKGLYRVDNWGQGTLVTVSS VL: DIELTQPPSVSVAPGQTARISCSGDNLGSKFAYWYQQKPGQAPVLVIYDDSKRPSGIPERFSGSNSGNTATLTISGTQAEDEADYYCQSWDSSSGNDVFGGGTKLTVLG", "EC50", "nM", 0.09],
  ["MOR05278 Fab (Fab, V domains shown) VH: QVQLVESGGGLVQPGGSLRLSCAASGFTFSSYGMSWVRQAPGKGLEWVSYIEPKLFWYATFYAASVKGRFTISRDNSKNTLYLQMNSLRAEDTAVYYCARNDFMEPAYFALWGQGTLVTVSS VL: DIELTQPPSVSVAPGQTARISCSGDNLGSYYAYWYQQKPGQAPVGVIYDDSERPSGIPERFSGSNSGNTATLTISGTQAEDEADYYCSSYTYSKNNVFGGGTKLTVLG", "EC50", "nM", 0.08]
]}

Using the record for MOR05271 Fab (Fab, V domains shown) VH: QVQLKESGPALVKPTQTLTLTCTFSGFSLSTSTMGVSWIRQPPGKALEWLAWIYWDDDKDYSTSLKSRLTISKDTSKNQVVLTMTNMDPVDTATYYCARANPDLGYFDYWGQGTLVTVSS VL: DIALTQPASVSGSPGQSITISCTGTSSDLGESNYVSWYQQHPGKAPKVMIYDVNKRPSGVSNRFSGSKSGNTASLTISGLQAEDEADYYCGSYDEEDNVFGGGTKLTVLG , report its EC50.
0.01
